B1: Poly(rC)-binding protein 1, residues 278 to 350; numbered along this chain, Q15365 (parent)
chain: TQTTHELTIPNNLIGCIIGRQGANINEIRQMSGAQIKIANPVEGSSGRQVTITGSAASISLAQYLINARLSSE

variants of: B1; assay: abundance fitness (aPCA) (normalised: wild type 0, dead -1); higher = more abundant; growth selection in yeast, the domain comes from the species named; conditions: Homo sapiens
parameter: abundance fitness
Give bare numbers.

Please state, for each entry, its recorded abundance fitness.
1. G54K
2. A68M
3. T8S
4. A57E
5. E73V

[reply]
[-0.804, -0.032, -0.074, 0.088, 0.182]
